# Experiment: Inhibition of IL-5 in mouse Y16 cells assessed as reduction in cell proliferation after 48 hrs by WST-1 assay
pIC50: −log10 of the molar value.
Quantity: pIC50

Compound: COCOc1ccc(CC2Cc3cccc(OCC4CCCCC4)c3C2=O)cc1 (stereo not given)
Quantity: pIC50
Quantitative readout: 4.77
--
Compound: O=C1c2c(cccc2OCc2ccccc2)CC1Cc1ccc(O)cc1 (stereo not given)
Quantity: pIC50
Quantitative readout: 4.68
--
Compound: O=C1c2c(cccc2OCC2CCCCC2)CC1Cc1cccc(O)c1 (stereo not given)
Quantity: pIC50
Quantitative readout: 5.22
--
Compound: O=C1c2c(cccc2OCCc2ccccc2)CC1Cc1cccc(O)c1 (stereo not given)
Quantity: pIC50
Quantitative readout: 4.55
--
Compound: Cc1ccc(CC2Cc3cccc(OCC4CCCCC4)c3C2=O)cc1 (stereo not given)
Quantity: pIC50
Quantitative readout: 4.61

[P] O=C1c2c(cccc2OCCC2CCCCC2)CC1Cc1ccc(O)cc1 (stereo not given)
[Q] O=c1c(Cc2ccc(O)cc2)coc2cccc(OCC3CCCCC3)c12
// query Hi, I'm comparing P with Q and wondering which one has the bigger number for pIC50. Any idea? Indicate your choice by writing its label.
// result Q
